System: E34 (patient-derived glioblastoma stem cells of proneural subtype)
Assay: surviving fraction (nuclei count normalised to DMSO); higher = more cells surviving (less toxic);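 also: nuclei counted by high-content imaging of Hoechst-stained cells in laminin-coated 384-well plates, relative to 0.1% DMSO vehicle wells, with staurosporine as cell-death control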
Details: 4.1 nM; exposure time: 72 h
Structures can show the parent of a compound that is named as a salt.
Entry flag: YES if surviving fraction reaches 0.9; NO if it does not.

# Molecule, Assigned class
data = [
    ("O=c1[nH]c(=O)n([C@H]2C[C@H](O)[C@@H](CO)O2)cc1I", "NO"),
    ("CSc1ccc2c(c1)N(CCC1CCCCN1C)c1ccccc1S2 (configuration not stated) [Thioridazine hydrochloride]", "YES"),
    ("N=c1ccn2c(n1)O[C@H]1[C@H](O)[C@@H](CO)O[C@H]12 [Ancitabine hydrochloride]", "YES"),
    ("Cc1ccc(NC(=O)c2ccc3c(c2)OCCO3)cc1NC(=O)c1ccc2nc(OCCN3CCCC3)ccc2c1", "NO"),
    ("O=C(C1CC1)N1CC[C@@H](Cc2n[nH]c(=O)n2-c2ccc(-c3ccc4occc4c3)cc2)C1", "NO"),
]

Req: Say whether C#C[C@]1(O)CC[C@H]2[C@@H]3CCc4cc(OC5CCCC5)ccc4[C@H]3CC[C@@]21C shows surviving fraction of 0.9 or more.
Resp: YES

* * *

System: E21 (patient-derived glioblastoma stem cells of mesenchymal subtype)
Test: surviving fraction (nuclei count normalised to DMSO); higher = more cells surviving (less toxic)
Details: 333.3 nM; exposure time: 72 h
Structures can show the parent of a compound that is named as a salt.
Entries annotated with measured surviving fraction
Just the number.

# Molecule, Metric, Reported result
rows = [
    ("OCCN1CCN(CCCN2c3ccccc3Sc3ccc(C(F)(F)F)cc32)CC1 [Fluphenazine dihydrochloride]", "surviving fraction", 1.01),
    ("CCCCCCC[N+](CC)(CC)CCCCc1ccc(Cl)cc1 [Clofilium tosylate]", "surviving fraction", 0.976),
    ("C[C@H]1Oc2cc(cnc2N)-c2c(nn(C)c2C#N)CN(C)C(=O)c2ccc(F)cc21", "surviving fraction", 0.862),
    ("Nc1nc(Cl)nc2c1ncn2[C@@H]1O[C@H](CO)[C@@H](O)[C@@H]1F", "surviving fraction", 0.343),
    ("Cc1[nH]nc(C(F)(F)F)c1Cc1sc2c(c1C(=O)N1C[C@](C)(O)CO1)c(=O)n(C)c(=O)n2C(C)C", "surviving fraction", 0.97),
]

Req: Using the record for N=C(N)c1ccc(-c2ccc(-c3ccc(C(=N)N)cc3)o2)cc1 [Furamidine dihydrochloride] , report its surviving fraction.
Resp: 1.02

Req: Using the record for NCc1ccccc1CC(=O)N[C@@H]1C(=O)N2C(C(=O)O)=C(CSc3nnnn3CC(=O)O)CS[C@H]12 [Ceforanide] , report its surviving fraction.
Resp: 0.927

Req: Using the record for c1ccc2c(c1)[I+]c1ccccc1-2 [Diphenyleneiodonium chloride] , report its surviving fraction.
Resp: 0.548

Req: Using the record for CN1CCC(NC(=O)c2cc(-c3c(O)cc(O)cc3Oc3ccc([N+](=O)[O-])cc3)on2)CC1 , report its surviving fraction.
Resp: 0.416

Req: Using the record for C[C@H](Cc1cc2c(c(C(N)=O)c1)N(CCCO)CC2)NCCOc1ccccc1OCC(F)(F)F , report its surviving fraction.
Resp: 0.998

Req: Using the record for Cc1ccc2c(c1)C1(CCN(CCc3nc(-c4ccccc4)oc3C)CC1)OC(=O)N2 , report its surviving fraction.
Resp: 0.988

Req: Using the record for NC1CCN(c2nc3c(cc2F)c(=O)c(C(=O)O)cn3-c2ccc(F)cc2F)C1 (configuration not stated) [Tosufloxacin hydrochloride] , report its surviving fraction.
Resp: 0.988
